Recorded GI50 at 72 h, one value per entry.
# ASSAY PROCEDURE: in vitro
# ASSAY CONTEXT: human, MRC5 cells
QUANTITY NAME: GI50 at 72 h (µM)

1. NCCCCNc1nc(Nc2ccc(CN3CCOCC3)cc2)c2ncn(C3CCCC3)c2n1    3.88
2. CCN1CCN(c2ccc(Nc3nc(N[C@H]4CC[C@H](N)CC4)nc4c3ncn4C3CCCC3)cc2)CC1    22
3. NCCCCCNc1nc(Nc2ccc(CN3CCOCC3)cc2)c2ncn(C3CCCC3)c2n1    5.88
4. N[C@H]1CC[C@H](Nc2nc(Nc3ccc(N4CCCC4)cc3)c3ncn(C4CCCC4)c3n2)CC1    14
5. c1ccc(CNc2nc(Nc3ccc(CN4CCOCC4)cc3)c3ncn(C4CCCC4)c3n2)cc1    23.9
6. N[C@H]1CC[C@H](Nc2nc(Nc3ccc(CN4CCOCC4)cc3)c3ncn(C4CCCC4)c3n2)CC1    20.6
7. N[C@H]1CC[C@H](Nc2nc(Nc3ccc(N4CC5(COC5)C4)cc3)c3ncn(C4CCCC4)c3n2)CC1    9.8

###

# ASSAY PROCEDURE: in vitro
# ASSAY CONTEXT: mouse, BA/F3 cells
QUANTITY NAME: GI50 at 72 h (nM)

1. N[C@H]1CC[C@H](Nc2nc(Nc3ccc(CN4CCOCC4)cc3)c3ncn(C4CCCC4)c3n2)CC1    1140

###

# ASSAY PROCEDURE: in vitro
# ASSAY CONTEXT: human, HUVEC
QUANTITY NAME: GI50 at 72 h (µM)

1. N[C@H]1CC[C@H](Nc2nc(Nc3ccc(CN4CCOCC4)cc3)c3ncn(C4CCCC4)c3n2)CC1    5.87
2. NCCCCNc1nc(Nc2ccc(N3CCOCC3)cc2)c2ncn(C3CCCC3)c2n1    8.06
3. N[C@H]1CC[C@H](Nc2nc(Nc3ccc(N4CCCC4)cc3)c3ncn(C4CCCC4)c3n2)CC1    12.1
4. N[C@H]1CC[C@H](Nc2nc(Nc3ccc(N4CCOCC4)cc3)c3ncn(C4CCCC4)c3n2)CC1    4.53
5. CCN1CCN(c2ccc(Nc3nc(NCCCCN)nc4c3ncn4C3CCCC3)cc2)CC1    11.4
6. NCCCCNc1nc(Nc2ccc(CN3CCOCC3)cc2)c2ncn(C3CCCC3)c2n1    6.27
7. CCN1CCN(c2ccc(Nc3nc(N[C@H]4CC[C@H](N)CC4)nc4c3ncn4C3CCCC3)cc2)CC1    4.44
8. c1ccc(CNc2nc(Nc3ccc(CN4CCOCC4)cc3)c3ncn(C4CCCC4)c3n2)cc1    10.1
9. NCCCCCNc1nc(Nc2ccc(CN3CCOCC3)cc2)c2ncn(C3CCCC3)c2n1    14.2

###

Recorded IC50, one value per entry.
# TESTED TARGET: Receptor-type tyrosine-protein kinase FLT3 (Homo sapiens, UniProt P36888, D835Y)
# ASSAY PROCEDURE: biochemical
# Description: Inhibition of N-terminal GST/His6-fused recombinant human FLT3 (R571 to S993 residues) D835Y mutant expressed in Sf9 insect cells using poly (Ala,Glu,Lys,Tyr) 6:2:5:1 hydrobromide as substrate in presence of [gamma-33P]ATP
QUANTITY NAME: IC50 (nM)

1) CCN1CCN(c2ccc(Nc3nc(N[C@H]4CC[C@H](N)CC4)nc4c3ncn4C3CCCC3)cc2)CC1    2
2) N[C@H]1CC[C@H](Nc2nc(Nc3ccc(N4CCOCC4)cc3)c3ncn(C4CCCC4)c3n2)CC1    7
3) N[C@H]1CC[C@H](Nc2nc(Nc3ccc(N4CC5(COC5)C4)cc3)c3ncn(C4CCCC4)c3n2)CC1    28
4) CCN1CCN(c2ccc(Nc3nc(NCCCCN)nc4c3ncn4C3CCCC3)cc2)CC1    3
5) NCCCCCNc1nc(Nc2ccc(CN3CCOCC3)cc2)c2ncn(C3CCCC3)c2n1    65
6) N[C@H]1CC[C@H](Nc2nc(Nc3ccc(N4CCCC4)cc3)c3ncn(C4CCCC4)c3n2)CC1    11
7) NCCCCNc1nc(Nc2ccc(N3CCOCC3)cc2)c2ncn(C3CCCC3)c2n1    7
8) N[C@H]1CC[C@H](Nc2nc(Nc3ccc(CN4CCOCC4)cc3)c3ncn(C4CCCC4)c3n2)CC1    8
9) NCCCCCCNc1nc(Nc2ccc(CN3CCOCC3)cc2)c2ncn(C3CCCC3)c2n1    69
